- target.or.system: SARS-CoV-2 Spike Protein (RBD)(R319-F541).mFc (SARS-CoV-2)
- procedure.text: Luminex, supernatant
List of MFI values.
measured.quantity: MFI (MFI)

binder	measured.quantity	reading
mAb10982 (antibody, V domains shown) VH: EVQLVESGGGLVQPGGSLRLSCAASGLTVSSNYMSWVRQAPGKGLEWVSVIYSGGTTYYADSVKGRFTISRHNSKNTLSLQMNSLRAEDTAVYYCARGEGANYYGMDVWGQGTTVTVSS VL: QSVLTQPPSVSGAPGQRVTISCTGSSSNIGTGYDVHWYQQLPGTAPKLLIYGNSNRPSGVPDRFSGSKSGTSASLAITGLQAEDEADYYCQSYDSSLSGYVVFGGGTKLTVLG	MFI	23300
mAb10985 (antibody, V domains shown) VH: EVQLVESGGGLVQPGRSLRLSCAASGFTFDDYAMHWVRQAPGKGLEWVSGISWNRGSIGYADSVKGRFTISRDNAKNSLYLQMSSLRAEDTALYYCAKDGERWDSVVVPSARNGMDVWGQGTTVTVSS VL: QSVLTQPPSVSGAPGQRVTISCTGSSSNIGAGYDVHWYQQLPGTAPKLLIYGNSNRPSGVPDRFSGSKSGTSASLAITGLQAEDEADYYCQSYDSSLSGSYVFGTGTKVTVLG	MFI	29400
mAb10964 (antibody, V domains shown) VH: QVQLQESGPGLVKPSETLSLTCTVSGGSINNYYWIWIRQPPGKGLEWIGYIYHSGSTNYNPSLKSRVTISVDTSKNQFSLKVSSVTAADTAVYYCANMVRGVYEDDYWGQGTLVTVSS VL: DIQMTQSPSSLSASVGDRVTITCRASQSISNYLNWYQQKPGKAPKLLIFAASSLRSGVPSRFSGSGSGTDFTLTISSLHPEDFATYYCQQNYNTPLTFGPGTKVDIKR	MFI	32400
